Assay: Induction of nitrous oxide release in MeOH/TBS buffer at pH 10 at 25 mM after 0.5 hrs by gas chromatographic analysis
Assay type: physicochemical
Details: pH 10, 0.5 h, 25000 µM
READOUT: Activity (%)

Solved entries (count: 3):
> print(dat)
                         chemical.structure   readout  result.value
1        COS(=O)(=O)CCO/N=[N+](\[O-])NC(C)C  Activity          16.7
2       CONS(=O)(=O)CCO/N=[N+](\[O-])NC(C)C  Activity          52.6
3  CC(C)N/[N+]([O-])=N/OCCS(=O)(=O)NOCc1ccccc1  Activity          56.8

P. CC(C)N[N+]([O-])=N[O-].[Na+]
Q. CC(C)N/[N+]([O-])=N/OCCS(C)(=O)=O
q: # returns the entry with the larger Activity; inputs P and Q Answer by quoting the chosen item's label.
a: Q
(Q: 52.9%, P: 5.9%)
